# Tested on: H82 small cell lung carcinoma
# Assay name: Cell proliferation assay, H82 (CellTiter fluorescence)
# Type: cell-based
# Condition set: Homo sapiens, NCI-H82, 72 h, H82, day 3, 3 × 10^−4M; read-out: % Inhibition of Cell Growth at day 3 compared to vehicle-treated cells
Counter-ions that a name gives are not always drawn.
Measured attribute: inhibition at 300 µM
Provide the measurement as a number trailed by its unit.

Sure, the documented inhibition at 300 µM for "C[N+]1(C)CCCN(c2ccccn2)CC1" is -6%

CC[N+]1(C)CCCN(c2ccccc2)CC1 (stereo not shown) [ASM-055, Tosylate] yielded inhibition at 300 µM of 66%

Notebook: CC[N+]1(CC)CCCN(c2ccccn2)CC1 [ASM-037, Tosylate] , inhibition at 300 µM read as 29%

The reported inhibition at 300 µM of the compound CCC[N+]1(C)CCCN(c2ccccn2)CC1 (stereo not shown) was 35%

----------
# Tested on: Calu 3 lung adenocarcinoma
# Assay name: Cell proliferation assay, Calu 3 (MTT)
# Type: cell-based
# Condition set: Homo sapiens, Calu-3, 144 h, read-out: IC50 Day 6
Measured attribute: IC50
Write down the value, and be sure its unit follows.

Value of measured IC50 for the entry Cc1cccc(N2CCC[N+](C)(C)CC2)c1 [ASM-068] : 52 µM

----------
Provide the reported pIC50 of each item.
# Tested on: H520 squamous cell carcinoma
# Assay name: Cell proliferation assay, H520 (MTT)
# Assay type: cell-based
# Condition set: Homo sapiens, NCI-H520, 72 h, H520, day 3 in culture; read-out: IC50 Day 3
Where a name gives a salt, the structure may show the parent alone.
The read-out pIC50 is expressed as -log10 of concentration in moles per litre.

pIC50 reported for this compound CC[N+]1(CC)CCCN(c2ccc(Cl)cc2)CC1 [ASM-048, Tosylate] : 3.49

// CC[N+]1(C)CCCN(c2ccccc2)CC1 (stereo not drawn) [ASM-055, Tosylate] : pIC50 value = 3.21

Reported pIC50 for C[N+]1(C)CCCN(c2ccccn2)CC1 [ASM-016] was 3.38

----------
Counter-ions that a name gives are not always drawn.
Measured attribute: melting point

Looking up CC[N+]1(CC)CCCN(c2ccc(O)cc2)CC1 (as salt: tosylate) , I found its melting point recorded as 144 to 145.5 °C

Summary for this compound, C[N+]1(C)CCCN(c2ccc(C(F)(F)F)cc2)CC1 (as salt: tosylate) [ASM-058] : melting point is 212.6 to 213.4 °C

In plain terms, Cc1cccc(N2CCC[N+](C)(C)CC2)c1 (as salt: tosylate) has a documented melting point of 161.6 to 162.5 °C

What the record says about "C[N+]1(C)CCCN(c2ccccc2)CC1.[I-]" : melting point is 158 to 160 °C

Per the record, CC[N+]1(C)CCCN(c2ccccc2)CC1.[I-] (stereo not drawn) (hydrate or solvate) has melting point of 167.5 to 168.7 °C

Per the record, C[N+]1(C)CCCN(c2ccc(C(F)(F)F)cc2)CC1 (as salt: iodide) [ASM-071] has melting point of 224.3 to 225.4 °C

----------
# System: H520 squamous cell carcinoma
# Assay name: Cell proliferation assay, H520 (MTT)
# Type: cell-based
# Condition set: Homo sapiens, NCI-H520, 72 h, H520, day 3 in culture; read-out: IC50 Day 3
pIC50: −log10 of the molar value. Structures can show the parent of a compound that is named as a salt.
Measured attribute: pIC50

Kindly note the recorded pIC50 for CCC[N+]1(C)CCCN(c2ccccn2)CC1 (stereo not drawn) , which is < 3.00

pIC50 for CC[N+]1(CC)CCCN(c2ccccn2)CC1 [ASM-037, Tosylate] is < 3.00

Data point: CC[N+]1(CC)CCCN(c2ccc(F)cc2)CC1 [ASM-049, Tosylate] ; pIC50 = < 3.15
